Experimental target: human IL-17RA on cells (human PBMC; human foreskin fibroblasts) (human, UniProt Q96F46 33-866)
Protocol description: cell-based or functional assay
Quantity name: % Inhib. of IL-5 production (TSLP treated human PBMC + IL-2 + IL-25), Expt. 2 (%)
Record the value in %, omitting the unit from your answer.

// query Reported % Inhib. of IL-5 production (TSLP treated human PBMC + IL-2 + IL-25), Expt. 2 for 3.1545.1 (antibody, V domains shown) VH: EVQLVESGGGSVQPGGSLRLSCAASGFTFSSYSMNWVRQAPGKGLEWVSIISSRSSIIHYADSVKGRFTISRDNAKNSLYLQMNSLRDEDTAVYYCARPKVGGGMDVWGQGTTVTVSS VL: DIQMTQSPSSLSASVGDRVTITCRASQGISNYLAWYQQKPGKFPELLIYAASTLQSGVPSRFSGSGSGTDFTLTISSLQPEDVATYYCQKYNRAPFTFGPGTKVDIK : what is it?
// result 43
